Just for reference, ChEMBL document CHEMBL1201862 is where these values come from.

For each of the compounds below, state its GI50.
Test system: PC-3
testName: NCI tumour cell line growth inhibition, 48 h
Calls of active or inactive are those of the source. Rule as the data show it: active = GI50 up to about 1.1 µM and inactive = higher.

Record summary for "CC1=NN(c2nc(N)nc(NS(=O)(=O)c3cc(C)c(Cl)cc3S)n2)C(C)(C)C1" : reported GI50 = > 10 µM (inactive)

Record summary for "Cc1ccc(O)c(/N=N\c2c(O)cc(S(=O)(=O)O)c3ccccc23)c1" : reported GI50 = 33.7 µM (inactive)

Record summary for "O=C1CCN(CCC(F)(F)C(F)(F)C(F)(F)C(F)(F)C(F)(F)C(F)(F)F)C(=S)N1CCC(F)(F)C(F)(F)C(F)(F)C(F)(F)C(F)(F)C(F)(F)F" : reported GI50 = > 100 µM (inactive)

Record summary for C/C=C(/C)C(=O)O[C@H](C[C@@H](C)[C@H]1CC(c2ccoc2)OC1=O)[C@@]1(C)C(=O)CCC2O[C@]21C (some centres undefined) : reported GI50 = > 100 µM (inactive)
